details: in n-butyl acetate, 308.15 K
attributeMeasured: solubility (mole fraction)
# answer = number (no unit)

[Q] Find the measured solubility (mole fraction) of CCOc1ccccc1C(N)=O and report it.
[A] 0.011

---

settings: in methyl acetate, 293.15 K
attributeMeasured: solubility (mole fraction)
# answer = number (no unit)

[Q] Find the measured solubility (mole fraction) of CCOc1ccccc1C(N)=O and report it.
[A] 0.00924

---

conditions: in n-butyl acetate, 293.15 K
attributeMeasured: solubility (mole fraction)
# answer = number (no unit)

[Q] Find the measured solubility (mole fraction) of CCOc1ccccc1C(N)=O and report it.
[A] 0.00603

---

settings: in ethyl formate, 293.15 K
attributeMeasured: solubility (mole fraction)
# answer = number (no unit)

[Q] Find the measured solubility (mole fraction) of CCOc1ccccc1C(N)=O and report it.
[A] 0.0103

---

details: in acetone, 323.15 K
attributeMeasured: solubility (mole fraction)
# answer = number (no unit)

[Q] Find the measured solubility (mole fraction) of CCOc1ccccc1C(N)=O and report it.
[A] 0.0507

---

details: in acetone, 298.15 K
attributeMeasured: solubility (mole fraction)
# answer = number (no unit)

[Q] Find the measured solubility (mole fraction) of CCOc1ccccc1C(N)=O and report it.
[A] 0.0184

---

details: in acetone, 328.15 K
attributeMeasured: solubility (mole fraction)
# answer = number (no unit)

[Q] Find the measured solubility (mole fraction) of CCOc1ccccc1C(N)=O and report it.
[A] 0.0611

---

conditions: in n-pentanol, 323.15 K
attributeMeasured: solubility (mole fraction)
# answer = number (no unit)

[Q] Find the measured solubility (mole fraction) of CCOc1ccccc1C(N)=O and report it.
[A] 0.0406

---

settings: in sec-butanol, 298.15 K
attributeMeasured: solubility (mole fraction)
# answer = number (no unit)

[Q] Find the measured solubility (mole fraction) of CCOc1ccccc1C(N)=O and report it.
[A] 0.0117

---

conditions: in n-butanol, 308.15 K
attributeMeasured: solubility (mole fraction)
# answer = number (no unit)

[Q] Find the measured solubility (mole fraction) of CCOc1ccccc1C(N)=O and report it.
[A] 0.0199

---

settings: in n-pentanol, 303.15 K
attributeMeasured: solubility (mole fraction)
# answer = number (no unit)

[Q] Find the measured solubility (mole fraction) of CCOc1ccccc1C(N)=O and report it.
[A] 0.0165

---

details: in ethyl formate, 313.15 K
attributeMeasured: solubility (mole fraction)

[Q] Find the measured solubility (mole fraction) of CCOc1ccccc1C(N)=O and report it.
[A] 0.0238

---

details: in sec-butanol, 288.15 K
attributeMeasured: solubility (mole fraction)
# answer = number (no unit)

[Q] Find the measured solubility (mole fraction) of CCOc1ccccc1C(N)=O and report it.
[A] 0.00735

---

settings: in isopropanol, 323.15 K
attributeMeasured: solubility (mole fraction)
# answer = number (no unit)

[Q] Find the measured solubility (mole fraction) of CCOc1ccccc1C(N)=O and report it.
[A] 0.0339

---

conditions: in DMF, 308.15 K
attributeMeasured: solubility (mole fraction)
# answer = number (no unit)

[Q] Find the measured solubility (mole fraction) of CCOc1ccccc1C(N)=O and report it.
[A] 0.0875

---

settings: in n-propyl acetate, 313.15 K
attributeMeasured: solubility (mole fraction)
# answer = number (no unit)

[Q] Find the measured solubility (mole fraction) of CCOc1ccccc1C(N)=O and report it.
[A] 0.015
